- STUDY SYSTEM: hERG (KCNH2) (Homo sapiens, UniProt Q12809)
- Sequence (Q12809 whole entry): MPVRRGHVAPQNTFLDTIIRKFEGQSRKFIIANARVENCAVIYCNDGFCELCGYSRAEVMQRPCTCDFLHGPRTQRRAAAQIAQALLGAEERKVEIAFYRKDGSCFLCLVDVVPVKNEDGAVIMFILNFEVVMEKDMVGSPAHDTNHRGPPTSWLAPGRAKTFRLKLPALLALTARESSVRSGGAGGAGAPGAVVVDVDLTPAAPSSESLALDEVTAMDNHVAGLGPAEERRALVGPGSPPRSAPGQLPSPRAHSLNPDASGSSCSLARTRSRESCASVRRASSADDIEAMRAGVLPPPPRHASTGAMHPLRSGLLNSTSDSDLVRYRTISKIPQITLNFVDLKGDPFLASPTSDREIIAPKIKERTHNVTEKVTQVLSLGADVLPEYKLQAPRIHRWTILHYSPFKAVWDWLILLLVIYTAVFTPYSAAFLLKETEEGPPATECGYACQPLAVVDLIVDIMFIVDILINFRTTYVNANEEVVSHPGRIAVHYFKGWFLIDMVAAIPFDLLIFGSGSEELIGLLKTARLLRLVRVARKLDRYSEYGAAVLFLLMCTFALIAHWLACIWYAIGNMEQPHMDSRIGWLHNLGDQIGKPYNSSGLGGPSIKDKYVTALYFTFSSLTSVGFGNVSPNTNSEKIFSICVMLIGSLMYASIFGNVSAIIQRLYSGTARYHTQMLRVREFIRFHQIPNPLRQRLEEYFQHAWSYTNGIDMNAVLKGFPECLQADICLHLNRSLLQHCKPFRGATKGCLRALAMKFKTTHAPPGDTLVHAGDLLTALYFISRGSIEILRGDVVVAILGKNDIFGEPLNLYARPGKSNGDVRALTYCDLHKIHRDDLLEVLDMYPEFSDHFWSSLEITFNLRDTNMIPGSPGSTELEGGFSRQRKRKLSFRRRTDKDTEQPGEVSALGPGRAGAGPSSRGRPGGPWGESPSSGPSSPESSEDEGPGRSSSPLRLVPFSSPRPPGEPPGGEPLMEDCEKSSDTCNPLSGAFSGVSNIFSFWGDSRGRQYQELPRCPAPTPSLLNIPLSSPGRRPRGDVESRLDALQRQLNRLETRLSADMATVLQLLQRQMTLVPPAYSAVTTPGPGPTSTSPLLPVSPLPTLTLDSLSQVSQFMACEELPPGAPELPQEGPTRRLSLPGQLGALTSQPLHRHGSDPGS
- ASSAY INFO: Inhibition of human ERG expressed in CHO cells at 2.5 uM by patch clamp assay relative to control
- Assay type: cell-based
- CONDITION CONTEXT: CHO cells that express hERG
MEASURED PARAMETER: inhibition at 2.5 µM (%)
// return numeric value only (unit: %, not printed)

Query string: Supply inhibition at 2.5 µM value. Item: CCN(CC)/[N+]([O-])=N/OCOC(=O)/C=C/c1ccc(OC(=O)OCN2C(=O)SC(Cc3ccc(OCCN(C)c4ccccn4)cc3)C2=O)c(OC)c1 (configuration not stated)
Result string: 10.8

Query string: Tell me inhibition at 2.5 µM reported for CN(CCOc1ccc(CC2SC(=O)NC2=O)cc1)c1ccccn1 (configuration not stated) [ROSIGLITAZONE]
Result string: 17.3
